target: T1, human PD-L1 protein (soluble) (human, UniProt Q9NZQ7 19-239); test: SPR, mAb captured on anti-human IgG Fc, PD-L1 as analyte
T1 construct: also called PD-L1 (R&D Systems); His-tagged PD-L1 protein
T1 sequence (Q9NZQ7 19-239 limits assumed): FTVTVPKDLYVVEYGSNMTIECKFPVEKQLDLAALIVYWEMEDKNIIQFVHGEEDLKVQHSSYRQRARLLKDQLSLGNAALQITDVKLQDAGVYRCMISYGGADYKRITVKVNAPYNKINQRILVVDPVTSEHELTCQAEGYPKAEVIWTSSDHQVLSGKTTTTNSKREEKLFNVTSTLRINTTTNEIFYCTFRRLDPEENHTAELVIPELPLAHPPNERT
Entries annotated with measured Kd
Param answer (str): number followed by unit.

Binder: antibody A13 (antibody, V domains shown, Tested as full-length mAb made in CHO cells; also called L13H13) VH: QVQLQESGPGLVKPSETLSLTCTVSGGSISSYYWSWIRQPPGKGLEWIGYIHYSGSTKYNPSLKSRVTISLDTSKNQFSLKLSSVTAADTAVYYCARDRGIGAFDIWGQGTMVTVSS VL: EIVMTQSPATLSLSPGERATLSCRASQSVSSSYLSWYQQKPGQAPRLLIYGASTRATGIPARFSGSGSGTDFTLTISSLQPEDFAVYYCQQDYNLITFGQGTRLEIK
Kd: 124 nM
--
Binder: antibody A5 (antibody, V domains shown, Tested as full-length mAb made in CHO cells; also called L5H5) VH: QVQLVESGGGVVQPGRSLRLSCAASGFAFSSYGMHWVRQAPGKGLEWVALIWFDGNNKFYADSVKGRFTISRDNSKNTLYLQMNSLRAEDTAVYYCARDTTAASFDYWGQGTLVTVSS VL: EIVMTQSPATLSLSPGERATLSCRASQSVSSTYLSWYQQKPGQAPRLLIFGASTRATGIPARFSGSGSGTDFTLTISSLQPEDFAVYYCQQDYNLPPTFGPGTKVDIK
Kd: 15 nM
--
Binder: antibody A10 (antibody, V domains shown, Tested as full-length mAb made in CHO cells; also called L10H10) VH: QVQLVESGGGVVQPGRSLRLSCAASGFTFSSYGMHWVRQAPGKGLEWVAVIWYDGINKYYADSVKGRFTISRDNSKNTLYLQMNSLRAEDTAVYYCARDSTASPFDYWGQGTLVTVSS VL: EIVMTQSPATLSLSPGERATLSCRASQSVSSSYLSWYQQKPGQAPRLLIYGASTRATGIPARFSGSGSGTDFTLTISSLQPEDFAVYYCQQDYNLPHTFGQGTKLEIK
Kd: 42 nM
--
Binder: antibody A9 (antibody, V domains shown, Tested as full-length mAb made in CHO cells; also called L9H9) VH: QVQLVESGGGVVQPGRSLRLSCAASGFTFSSYGMHWVRQAPGKGLEWVAVIWFDGNNKYYADSVKGRFTISRDNSKNTLYLQMNSLRAEDTAVYYCARDVTTVPFDYWGQGTLVTVSS VL: EIVMTQSPATLSLSPGERATLSCRASQSVSSSYLSWYQQKPGQAPRLLMYGASTRATGIPARFSGSGSGTDFTLTISSLQPEDFAVYYCQQDYNLPYTFGQGTKLEIK
Kd: 26 nM

Tell me measured Kd for antibody A21 (antibody, V domains shown, Tested as full-length mAb made in CHO cells; also called L21H21) VH: QVQLVESGGGVVQPGRSLRLSCAASGFTFSSYGMHWVRQAPGKGLEWVAVIWYDGSNKFYEDSVKGRFTISRDNSKNTLYLQMNSLRAEDTAVYYCARGGVNWNDVGYYYYGMDVWGQGTTVTVSS VL: DIQLTQSPPFLSASVGDRVTITCRASQGISSYLAWYQQKPGKAPKLLIYAASTLQSGVPSRFSGSGSGTEFTLTISSLQPEDFATYYCQQLNSYPFTFGQGTKLEIK please.
860 nM

Complete the entry with Kd for antibody A19 (antibody, V domains shown, Tested as full-length mAb made in CHO cells; also called L19H19) VH: QVQLVESGGGVVQPGRSLRLSCVASGFTFSSYGMHWVRQAPGKGLEWVAVIWYDGSNKFYIDSVKGRFTISRDNSKNTLYLQMNSLRAEDTAVYYCARGGAVAGTSWYYYYGMDVWGQGTTVTVSS VL: DIQLTQSPSFLSASVGDRVTITCRASQGISSYLAWYQQKPGKAPKLLIYDASTLQSGVPSRFSGSGSGTEFTLTISSLQPEDFAIYYCQQLNTYPLTFGGGTKVEIK
567 nM

Check the records and state Kd for antibody A7 (antibody, V domains shown, Tested as full-length mAb made in CHO cells; also called L7H7) VH: QVQLQESGPGLVKPSETLSLTCTVSGGSISSYYWSWIRQPPGKGLEWIGYIFYSGSTNYNPSLKSRVTISVDTSKNQFSLKLSSVTAADTAVYFCARDNWHDGGVDYWGQGTLVTVSS VL: EIVMTQSPTTLSLSPGERATLSCRASQSVSSSYLSWYQQKPGQAPRLLIYGASTRATGIPARFSGSGSGTDFTLTISSLQPEDFAVYYCQQDYNLRTFGQGTKVEIK
17 nM

Using known records, supply Kd for antibody A3 (antibody, V domains shown, Tested as full-length mAb made in CHO cells; also called L3H3) VL: AIQMTQSPSSLSASVGDRVTITCRASQDIRNDLGWYQQQPGKAPKLLIYAASSLQSGVPSRFSGSGSGTDFTLTISSLQPEDFATYYCLQDYNYPPTFGQGTKVEIK V domain: QVQLVESGGGVVQPGRSLRLSCAASGFTFSNYGMHWVRQAPGKGLEWVAVIWFDGNTKYYTDSVKGRFTISRDNSKNTLYLQMNSLRAEDTAVYYCARDTTMVPMDVWGQGTTATVSS
5 nM

Read the entry antibody A16 (antibody, V domains shown, Tested as full-length mAb made in CHO cells; also called L16H16) VH: QVQLVESGGGVVQPGRSLRLSCAASGFTFSSYGMHWVRQAPGKGLEWVAVIWYDGSNKYYADSVKGRFTISRDNSNDTLFLQMNSLRAEDTAVYYCARDFDWFGMDVWGQGTTVTVSS VL: DIQMTQSPSSLSASVGDRVTITCRASQGIRNDLGWYQQKPGKAPKRLIYAASSLQSGVPSRFSGSGSGTEFTLTISSLQPEDFATYYCLQHNSYPRTFGQGTKVEIK and write its reported Kd.
246 nM

Could you please provide reported Kd for antibody A11 (antibody, V domains shown, Tested as full-length mAb made in CHO cells; also called L11H11) VH: QVQLVESGGGVVQPGRSLRLSCAASGFTFSSYGIHWVRQAPGKGLEWVAVIWSDGSNKFYADSVKGRFTISRDNSKNTLFLQMSSLRAEDTAVYYCARDIAAAIDYWGQGTLVTVSS VL: AIQMTQSPSSLSASVGDRVTITCRASQGIRNDLGWYQQKPGKAPKLLIYAASSLQSGVPSRFSGSGSGTDFTLTISSLQPEDFATYYCLQDYNYPYTFGQGTKLEIK ? Thanks!
66 nM

Please look at this binder and report its Kd: antibody A12 (antibody, V domains shown, Tested as full-length mAb made in CHO cells; also called L12H12) VH: QVQLVESGGGVVQPGRSLRLSCAASGFTFSSYGMHWVRQAPGKGLEWVAVIWYDGSNKSYADSVKGRFTFSRDNSKNTLYLQMNSLRAEDTAVYYCARDMDYFGLDVWGQGTTVTVSS VL: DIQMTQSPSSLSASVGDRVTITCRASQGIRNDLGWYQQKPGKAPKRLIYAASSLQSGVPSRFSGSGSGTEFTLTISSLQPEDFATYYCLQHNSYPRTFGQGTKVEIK
80 nM

Attribution: patent US20220056137A1
